The reported measurements were obtained from PubChem BioAssay.

- measurementProtocol: FRG1 promoter luciferase signal modulators, primary screen, FRG1 inhibition for FSHD, cell-based, C2C12 myotubes, firefly/Renilla luciferase, luminescence (AID 1084)
- particulars: higher = more signal, called active from +8 up or from −8 down
Entries and their z-score values follow.

{"compound": "O=C1O[C@@H](c2ccccc2)[C@@H](c2ccccc2)N2[C@@H](c3ccc(OCCO)cc3)[C@]3(C(=O)Nc4ccc(C#CC5=CCCCC5)cc43)[C@@H](C(=O)O)[C@H]12", "z-score": 0.82}
{"compound": "Cc1ccc(S[C@]2(C(=O)NCCN3CCOCC3)CC(=O)N(Cc3cc(C(F)(F)F)cc(C(F)(F)F)c3)[C@@H]2c2ccc(CO)cc2I)cc1", "z-score": 0.679}
{"compound": "COCCOC(=O)N1C(=O)[C@@]2(c3cc(C#CCNC(N)=O)ccc31)[C@H](c1ccccc1OCCO)N1[C@H](c3ccccc3)[C@H](c3ccccc3)OC(=O)[C@H]1[C@@H]2C(N)=O", "z-score": -1.33}
{"compound": "CC(C)C[C@@H]1NC(=O)[C@@H]2C[C@H](C(=O)NCCCCCC[N+](C)(C)C)[C@H](c3ccc(O)cc3)N2C1=O", "z-score": 1.97}
{"compound": "CN(C)CCCCCCNC(=O)[C@H]1C[C@H]2C(=O)N[C@@H](CCCCN)C(=O)N2[C@H]1c1ccc(O)cc1", "z-score": 0.369}
{"compound": "Cc1ccc(F)cc1S(=O)(=O)N[C@@H]1CCN(Cc2ccc(-c3ccccc3)cc2)C1", "z-score": -1.72}
{"compound": "C=C[C@@H](COC(C)=O)N(Cc1ccccc1[N+](=O)[O-])S(=O)(=O)c1ccc(Br)cc1", "z-score": -3.14}
{"compound": "CN(C)C(=O)[C@@]1(CCC(=O)OC(C)(C)C)N=C(c2ccc(OCCCO)cc2)O[C@H]1c1ccccc1", "z-score": -0.624}
{"compound": "CC(C)C(=C=CC[C@H](O)c1ccccc1OCCO)C[C@H](O)c1ccccn1", "z-score": -1.68}
{"compound": "CCOC(=O)C[C@H]1[C@H](OC(=O)c2ccc(-c3ccccc3)cc2)[C@@H](NC(=O)c2ccc3ccccc3c2)c2cc(OCCCO)ccc2N1C(=O)Cc1ccc(OC)cc1", "z-score": 1.21}
{"compound": "CCCCCN1CC=CC23O[C@@H]4/C=C\\CCC(C)OC(=O)C4[C@H]2C(=O)N(CCCCCO)[C@@H]3C1=O (some centres undefined)", "z-score": 0.312}
{"compound": "COCCOC(=O)N1C(=O)[C@@]2(c3cc(C#CCC(C(=O)OC)C(=O)OC)ccc31)[C@H](C(=O)N1CCN(c3ncccn3)CC1)[C@H]1C(=O)O[C@H](c3ccccc3)[C@H](c3ccccc3)N1[C@@H]2c1ccc(OCCO)cc1", "z-score": -0.644}
{"compound": "COCCOC(=O)N1C(=O)[C@@]2(c3cc(C#CCC(C(=O)OC)C(=O)OC)ccc31)[C@H](c1ccccc1OCCO)N1[C@H](c3ccccc3)[C@H](c3ccccc3)OC(=O)[C@H]1[C@@H]2C(N)=O", "z-score": -0.885}
{"compound": "C=C(CCCC)C(=O)CC[C@H](OC(=O)c1cccnc1)c1cccc(OCCO)c1", "z-score": -0.594}

---

- measurementProtocol: small-molecule microarray binders of probe aDKK1, primary screen, biochemical, biotinylated probe, 635/667 nm fluorescence (AID 1099);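 further: score merges 667nm spot fluorescence with signal to noise across triplicate slides; reference of the scale not given here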
- particulars: higher = more signal

{"sampleSmiles": "C=C[C@H](C)[C@@H](O)c1ccc(O)c2ccccc12", "composite z-score": -0.302}
{"sampleSmiles": "[N-]=[N+]=NCc1ccccc1[C@H]1OC(c2ccc(OCCCO)cc2)=N[C@@]1(CCS(=O)(=O)c1ccccc1)C(=O)N1CCOCC1", "composite z-score": 1.19}
{"sampleSmiles": "COCCOC(=O)N1C(=O)[C@@]2(c3cc(C#CCCO)ccc31)[C@H](C(=O)NC[C@H](O)c1ccccc1)[C@H]1C(=O)O[C@H](c3ccccc3)[C@H](c3ccccc3)N1[C@@H]2c1ccc(O)cc1", "composite z-score": -0.194}
{"sampleSmiles": "C=C(C(=O)CC[C@H](OC(C)=O)c1ccc(OCCO)cc1)C(C)C", "composite z-score": -0.267}

---

- measurementProtocol: inhibitors of hydroxyurea-induced Chk1 phosphorylation, primary screen, imaging, HeLa, phospho-Chk1 nuclear intensity (AID 1187); further: test concentration not given here
- particulars: hydroxyurea-induced phospho-Chk1 immunofluorescence imaging, higher = more signal
Where z-score equals or exceeds -0.3, the correct label is YES; where it does not, the label is NO.

{"molecule": "C=CCC(OC(C)=O)[C@@H]1[C@@H](N(Cc2ccc(-c3ccccc3)cc2)C(=O)Cc2ccc(OC)cc2)c2cc(OCCCO)ccc2N1C(=O)c1ccc2ccccc2n1 (stereo partly specified)", "assignedLabel": "YES"}
{"molecule": "O=C1C[C@@](C(=O)NC2CC2)(c2ccc([N+](=O)[O-])cc2)[C@@H](c2ccc(CO)cc2)N1CC12CC3CC(CC(C3)C1)C2", "assignedLabel": "NO"}
{"molecule": "C=CCC(OC(C)=O)[C@@H]1[C@@H](N(Cc2ccc(-c3cccc(C(F)(F)F)c3)o2)C(=O)c2ccc(C)cc2)c2cc(OCCCO)ccc2N1C(=O)c1ccc(-c2ccccc2)cc1 (stereo partly specified)", "assignedLabel": "YES"}
{"molecule": "C=CCN1C(=O)[C@]2(O[C@H](CCO)[C@@H]([Si](C)(C)c3ccc(OC)cc3)[C@@H]2C)c2cc(NC(=O)[C@H](C)O)ccc21", "assignedLabel": "YES"}
{"molecule": "NCCCCCCNC(=O)[C@H]1C[C@H]2C(=O)NCC(=O)N2[C@H]1c1cccc(OCCO)c1", "assignedLabel": "YES"}
{"molecule": "COCCOC(=O)N1C(=O)[C@@]2(c3cc(C#CCCO)ccc31)[C@H](C(=O)NC[C@H](O)c1ccccc1)[C@H]1C(=O)O[C@H](c3ccccc3)[C@H](c3ccccc3)N1[C@@H]2c1ccc(O)cc1", "assignedLabel": "NO"}

---

Listed compounds paired with reported z-score
- measurementProtocol: HepG2 cell viability effects, profiling panel, calcein-AM fluorescence, 48 h, basal (AID 1164); further: test concentration not given here
- particulars: higher = more signal
parameter: z-score

{"compound": "CC(C)CNC(=O)[C@@]1(c2ccc([N+](=O)[O-])cc2)CC(=O)N(CC23CC4CC(CC(C4)C2)C3)[C@@H]1c1ccc(CO)cc1", "valueObserved": -0.715}
{"compound": "NC(=O)NCC#Cc1ccc2c(c1)[C@]1(C(=O)N2)[C@H](C(=O)N2CCCCCCC2)[C@H]2C(=O)O[C@H](c3ccccc3)[C@H](c3ccccc3)N2[C@@H]1c1ccc(OCCO)cc1", "valueObserved": -1.09}
{"compound": "O=C1C=CC(=O)[C@@H]2CC(COc3ccccc3)=C3[C@@H](CCc4ccccc4)OB(O)C[C@@H]3[C@H]12", "valueObserved": -0.478}
{"compound": "COC(=O)c1ccc(C(O)C2C=CC3C(=O)N(c4ccccc4)C(=O)C3N2Nc2ccc(C#N)cc2)o1 (configuration not stated)", "valueObserved": 2.04}
{"compound": "COc1ccc(C#Cc2ccc3c(c2)[C@]2(C(=O)N3)[C@H](C(=O)NC[C@H](O)c3ccccc3)[C@H]3C(=O)O[C@H](c4ccccc4)[C@H](c4ccccc4)N3[C@@H]2c2ccccc2OCCO)cc1", "valueObserved": -3.16}
{"compound": "COCCOC(=O)N1C(=O)[C@@]2(c3cc(C#CCCO)ccc31)[C@H](c1ccccc1OCCO)N1[C@H](c3ccccc3)[C@H](c3ccccc3)OC(=O)[C@H]1[C@@H]2C(=O)N1CCN(c2ncccn2)CC1", "valueObserved": 0.0682}
{"compound": "C=CC[C@@H](OC(=O)Nc1ccc(OC)cc1)c1ccc(O)c2ccccc12", "valueObserved": -2}

---

- testedSystem: Luciferin 4-monooxygenase (Photinus pyralis) (UniProt P08659)
- Sequence (P08659 whole entry, looked up): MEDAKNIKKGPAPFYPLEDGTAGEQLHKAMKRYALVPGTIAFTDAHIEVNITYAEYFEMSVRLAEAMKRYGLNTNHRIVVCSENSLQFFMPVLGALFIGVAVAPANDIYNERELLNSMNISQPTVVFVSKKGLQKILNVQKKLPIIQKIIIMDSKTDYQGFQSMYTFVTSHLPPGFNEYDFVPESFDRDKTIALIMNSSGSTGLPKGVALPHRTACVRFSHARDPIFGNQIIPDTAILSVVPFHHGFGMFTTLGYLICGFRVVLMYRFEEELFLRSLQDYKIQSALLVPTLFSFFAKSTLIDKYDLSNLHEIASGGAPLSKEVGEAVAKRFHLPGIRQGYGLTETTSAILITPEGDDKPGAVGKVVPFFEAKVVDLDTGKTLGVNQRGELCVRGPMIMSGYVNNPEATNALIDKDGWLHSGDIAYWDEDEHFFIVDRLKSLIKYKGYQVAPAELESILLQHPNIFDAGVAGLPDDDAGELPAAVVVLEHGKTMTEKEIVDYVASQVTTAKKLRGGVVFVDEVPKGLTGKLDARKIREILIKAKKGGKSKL
- measurementProtocol: firefly luciferase enzyme inhibitors, primary screen, biochemical, luminescence, purified enzyme, 2006 set (AID 1141);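 further: cell-free assay with purified firefly luciferase at 100 ng per well in PBS; test concentration not given here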
- particulars: SteadyGlo luminescence, 30 min, higher = more signal, called active from +8 up or from −8 down
Catalogue of z-score readings, one per entry.

{"compound": "COC(=O)[C@@]1(Cc2ccc(F)cc2)[C@H]2c3cc(C(=O)N4CCCC4)n(Cc4cccc5ccccc45)c3C[C@H]2CN1C(=O)c1ccccc1", "testedSystem": "Luciferin 4-monooxygenase (Photinus pyralis) (UniProt P08659)", "z-score": 0.943}
{"compound": "O=C(OCCF)C1=CCC(c2cccc(Cl)c2)O1 (centres undefined)", "testedSystem": "Luciferin 4-monooxygenase (Photinus pyralis) (UniProt P08659)", "z-score": 0.08}
{"compound": "CCCC[C@@H]1C[C@H]1[C@@H](NC(=O)c1ccc(-c2ccccc2)cc1)c1ccc(-c2ccccc2)cc1", "testedSystem": "Luciferin 4-monooxygenase (Photinus pyralis) (UniProt P08659)", "z-score": 0.779}
{"compound": "O=C1[C@]2(CO)C=C(Br)[C@@H](C[C@@H]2c2ccccc2)[C@@]12CO2", "testedSystem": "Luciferin 4-monooxygenase (Photinus pyralis) (UniProt P08659)", "z-score": 0.969}
